meta.source: the RNAGym collection of RNA variant scans (doi:10.1073/pnas.2313332121)

B1: TPR 5TU (parent)
chain: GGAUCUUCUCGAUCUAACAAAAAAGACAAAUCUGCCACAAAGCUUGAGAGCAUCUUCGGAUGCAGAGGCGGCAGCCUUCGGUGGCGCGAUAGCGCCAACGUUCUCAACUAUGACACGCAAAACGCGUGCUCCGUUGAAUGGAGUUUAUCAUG

variants of: B1; assay: polymerase ribozyme fitness, log enrichment relative to wild type (log ratio); higher = more active; in vitro selection for triplet polymerase activity
Fewer inactive variants are shown than the library holds.
Overview of reported polymerase ribozyme fitness (log ratio) across a group of variants:
Recorded Endpoint: polymerase ribozyme fitness (log ratio)

Mutant Id	Reported Result
A16G U53A U146G	-2.19
A21U C36A A64C G86C	≤ -4.2
G84A A89G G100C A115G C125U	≤ -4.2
C116U U146C	-0.11
C85U U146G U148C	-2.24
A28G G94A	-3.42
G11A A41U A52U U55A C118U	≤ -4.2
C85A A122G	-2.54
A3G C32G C35U A49C G50C C85A C103U C118G	≤ -4.2
C10G C85U A91C C105A	≤ -4.2
C38U C63A C85U	0.65
C43U G48A C57G C85U	≤ -4.2
G59U G68A U78C C93G G124A C131G G141U	≤ -4.2
C5U G92A C114U	-3.86
C18G A37C C96G A106G	-1.07
A19G C87G G92A U134A	≤ -4.2
U15C C54A G62A U78A G88C A113C A150U	≤ -4.2
A26U A28U C32A A52U A73U A91U G92A A113G U148A G152U	≤ -4.2
C96G G100U	-3.95
U33A A47C C99A	≤ -4.2
A40C G42U U55A C85A	≤ -4.2
C54U C96A C105G G124U	-3.42
A12U A26C C35A U55C G59C C76A C93A U111C A138G U144A	≤ -4.2
U31G G58C G140C	-4
A22C A26C A49C U56A G59U G68U C85U G86U G94U A97G U134A	≤ -4.2
U7C A20C A49C U77C A91U	≤ -4.2
C10A U33G A60G C75A A106U G117U A137C U144A	≤ -4.2
U56C C95A U102A	-1.87
A28U A37C C87A G117A G140C	≤ -4.2
U6C C27U G50C A52G G58A C87U	≤ -4.2
U6G U55A	0.402
G50A U145C	-0.761
C38U G86A A137G A147U	-2.49
A22C G50A C63A C69G A89G U127G G141U A142U	≤ -4.2
C32A A37U U56A G74A C76G G86A A115G G124A U151G	≤ -4.2
U44G G59C U78C G117U G143C	≤ -4.2
U31C C35G C36U C51G G92C U109A U151A	≤ -4.2
A3U G83C	-0.632
U6G C99G G141C	-2.05
A47G U55A C63G G84C	≤ -4.2
A26U C93U A122U	-2.76
A20U C93U G126A	-1.5
A24G A52C C85U C96U C105U A120U G136A	≤ -4.2
C8U A16G A21G A40U	-4.04
A16U C27G A28U U31C G74U U82A	≤ -4.2
C96A C103G	-2.53
